Measured values drawn from ChEMBL document CHEMBL2385047 for this set.

System: Clavispora lusitaniae
assay-overview: Antifungal activity against wild type Candida lusitaniae MY1396 assessed as growth inhibition after 24 hrs by NCCLS broth microdilution method
Type: functional
run-parameters: MY1396, 24 h, read-out: MIC100
Numbered stars: 1 amine (or outer) side, 2 acyl side, 3 side chain; on linkers, the order of the positions; unused ones are H or OH. Bridge positions count the residues as written; N and C are the ends. Square brackets hold non-standard residues; d marks the D form. Peptide text beside a SMILES is read from it. * marks the point of attachment. Orn(4R-OH,5R-OH) = O=C([C@H](C[C@@H](O)[C@@H](O)N[*:3])N[*:1])[*:2]; hTyr(3S-OH,4S-OH) = N[C@H](C(=O)O)[C@H](O)[C@@H](O)c1ccc(O)cc1; Pro(3S-OH,4S-Me) = C[C@H]1CN[C@H](C(=O)O)[C@H]1O; X1 = CCCCCOc1ccc(-c2cc(-c3ccc(C(=O)*)cc3)no2)cc1; Gln(3R-OH) = NC(=O)C[C@@H](O)[C@H](N)C(=O)O; Pro(3S-OH) = O=C(O)[C@H]1NCC[C@@H]1O; Hyp = O=C(O)[C@@H]1C[C@@H](O)CN1
test-readout: MIC (µg/mL)
Numbers only, in µg/mL.

In the examples that follow, each entry is paired with its recorded MIC.
molecule	system-name	MIC / µg/mL
CCCCCOc1ccc(-c2cc(-c3ccc(C(=O)N[C@H]4C[C@@H](O)[C@@H](O)NC(=O)[C@@H]5[C@@H](O)[C@@H](C)CN5C(=O)[C@H]([C@@H](C)O)NC(=O)[C@H]([C@H](O)[C@@H](O)c5ccc(O)cc5)NC(=O)[C@@H]5C[C@@H](O)CN5C(=O)[C@H]([C@@H](C)O)NC4=O)cc3)no2)cc1 (X1-[Orn(4R-OH,5R-OH)]T[Hyp][hTyr(3S-OH,4S-OH)]T[Pro(3S-OH,4S-Me)]; lactam 1-C)	Clavispora lusitaniae	1
CCCCCOc1ccc(-c2cc(-c3ccc(C(=O)N[C@H]4C[C@@H](O)[C@@H](O)NC(=O)[C@@H]5[C@@H](O)CCN5C(=O)[C@H]([C@H](O)CC(N)=O)NC(=O)[C@H]([C@H](O)[C@@H](O)c5ccc(O)cc5)NC(=O)[C@@H]5C[C@@H](O)CN5C(=O)[C@H]([C@@H](C)O)NC4=O)cc3)no2)cc1 (X1-[Orn(4R-OH,5R-OH)]T[Hyp][hTyr(3S-OH,4S-OH)][Gln(3R-OH)][Pro(3S-OH)]; lactam 1-C)	Clavispora lusitaniae	0.125

For the molecule CCCCCOc1ccc(-c2cc(-c3ccc(C(=O)N[C@H]4C[C@@H](O)[C@@H](O)NC(=O)[C@@H]5[C@@H](O)[C@@H](C)CN5C(=O)[C@H]([C@H](O)CC(N)=O)NC(=O)[C@H]([C@H](O)[C@@H](O)c5ccc(O)cc5)NC(=O)[C@@H]5C[C@@H](O)CN5C(=O)[C@H]([C@@H](C)O)NC4=O)cc3)no2)cc1 (X1-[Orn(4R-OH,5R-OH)]T[Hyp][hTyr(3S-OH,4S-OH)][Gln(3R-OH)][Pro(3S-OH,4S-Me)]; lactam 1-C) , what MIC is on record? 0.125

---

Assign MIC to each entry below.
Test system: Clavispora lusitaniae
assay-overview: Antifungal activity against wild type Candida lusitaniae MY1396 assessed as growth inhibition after 24 hrs by NCCLS broth microdilution method
Assay type: functional
run-parameters: MY1396, 24 h, read-out: MIC100
Numbered stars: 1 amine (or outer) side, 2 acyl side, 3 side chain; on linkers, the order of the positions; unused ones are H or OH. Bridge positions count the residues as written; N and C are the ends. Square brackets hold non-standard residues; d marks the D form. Peptide text beside a SMILES is read from it. * marks the point of attachment. Orn(4R-OH,5R-OH) = O=C([C@H](C[C@@H](O)[C@@H](O)N[*:3])N[*:1])[*:2]; Tetradecanoyl(10R,12S-Me2) = CC[C@H](C)C[C@H](C)CCCCCCCCC(=O)*; hTyr(3S-OH,4S-OH) = N[C@H](C(=O)O)[C@H](O)[C@@H](O)c1ccc(O)cc1; Pro(3S-OH,4S-Me) = C[C@H]1CN[C@H](C(=O)O)[C@H]1O; Gln(3R-OH) = NC(=O)C[C@@H](O)[C@H](N)C(=O)O; Pro(3S-OH) = O=C(O)[C@H]1NCC[C@@H]1O; Hyp = O=C(O)[C@@H]1C[C@@H](O)CN1
Answers are plain numbers, in µg/mL.

In the examples that follow, each entry is paired with its recorded MIC.
compound	unit-spec	MIC
CC[C@H](C)C[C@H](C)CCCCCCCCC(=O)N[C@H]1C[C@@H](O)[C@@H](O)NC(=O)[C@@H]2[C@@H](O)[C@@H](C)CN2C(=O)[C@H]([C@H](O)CC(N)=O)NC(=O)[C@H]([C@H](O)[C@@H](O)c2ccc(O)cc2)NC(=O)[C@@H]2C[C@@H](O)CN2C(=O)[C@H]([C@@H](C)O)NC1=O ({Tetradecanoyl(10R,12S-Me2)}-[Orn(4R-OH,5R-OH)]T[Hyp][hTyr(3S-OH,4S-OH)][Gln(3R-OH)][Pro(3S-OH,4S-Me)]; lactam 1-C)	µg/mL	4
CC[C@H](C)C[C@H](C)CCCCCCCCC(=O)N[C@H]1C[C@@H](O)[C@@H](O)NC(=O)[C@@H]2[C@@H](O)CCN2C(=O)[C@H]([C@H](O)CC(N)=O)NC(=O)[C@H]([C@H](O)[C@@H](O)c2ccc(O)cc2)NC(=O)[C@@H]2C[C@@H](O)CN2C(=O)[C@H]([C@@H](C)O)NC1=O ({Tetradecanoyl(10R,12S-Me2)}-[Orn(4R-OH,5R-OH)]T[Hyp][hTyr(3S-OH,4S-OH)][Gln(3R-OH)][Pro(3S-OH)]; lactam 1-C)	µg/mL	4

For the compound `CC[C@H](C)C[C@H](C)CCCCCCCCC(=O)N[C@H]1C[C@@H](O)[C@@H](NCCN)NC(=O)[C@@H]2[C@@H](O)CCN2C(=O)[C@H]([C@H](O)CCN)NC(=O)[C@H]([C@H](O)[C@@H](O)c2ccc(O)cc2)NC(=O)[C@@H]2C[C@@H](O)CN2C(=O)[C@H]([C@@H](C)O)NC1=O` , what MIC is on record? 0.5

---

Assign MIC to each entry below.
Test system: Candida albicans
assay-overview: Antifungal activity against wild type Candida albicans MY1055 assessed as growth inhibition after 24 hrs by NCCLS broth microdilution method in presence of human serum
Format: functional
run-parameters: MY1055, 24 h, read-out: MIC100
Numbered stars: 1 amine (or outer) side, 2 acyl side, 3 side chain; on linkers, the order of the positions; unused ones are H or OH. Bridge positions count the residues as written; N and C are the ends. Square brackets hold non-standard residues; d marks the D form. Peptide text beside a SMILES is read from it. * marks the point of attachment. Orn(4R-OH,5R-OH) = O=C([C@H](C[C@@H](O)[C@@H](O)N[*:3])N[*:1])[*:2]; Tetradecanoyl(10R,12S-Me2) = CC[C@H](C)C[C@H](C)CCCCCCCCC(=O)*; hTyr(3S-OH,4S-OH) = N[C@H](C(=O)O)[C@H](O)[C@@H](O)c1ccc(O)cc1; Pro(3S-OH,4S-Me) = C[C@H]1CN[C@H](C(=O)O)[C@H]1O; X1 = CCCCCOc1ccc(-c2cc(-c3ccc(C(=O)*)cc3)no2)cc1; Gln(3R-OH) = NC(=O)C[C@@H](O)[C@H](N)C(=O)O; Pro(3S-OH) = O=C(O)[C@H]1NCC[C@@H]1O; Hyp = O=C(O)[C@@H]1C[C@@H](O)CN1
Record the result as a number with its unit.

In the examples that follow, each entry is paired with its recorded MIC.
molecule	MIC
CC[C@H](C)C[C@H](C)CCCCCCCCC(=O)N[C@H]1C[C@@H](O)[C@@H](O)NC(=O)[C@@H]2[C@@H](O)[C@@H](C)CN2C(=O)[C@H]([C@H](O)CC(N)=O)NC(=O)[C@H]([C@H](O)[C@@H](O)c2ccc(O)cc2)NC(=O)[C@@H]2C[C@@H](O)CN2C(=O)[C@H]([C@@H](C)O)NC1=O ({Tetradecanoyl(10R,12S-Me2)}-[Orn(4R-OH,5R-OH)]T[Hyp][hTyr(3S-OH,4S-OH)][Gln(3R-OH)][Pro(3S-OH,4S-Me)]; lactam 1-C)	32 mg/L
CC[C@H](C)C[C@H](C)CCCCCCCCC(=O)N[C@H]1C[C@@H](O)[C@@H](O)NC(=O)[C@@H]2[C@@H](O)CCN2C(=O)[C@H]([C@H](O)CC(N)=O)NC(=O)[C@H]([C@H](O)[C@@H](O)c2ccc(O)cc2)NC(=O)[C@@H]2C[C@@H](O)CN2C(=O)[C@H]([C@@H](C)O)NC1=O ({Tetradecanoyl(10R,12S-Me2)}-[Orn(4R-OH,5R-OH)]T[Hyp][hTyr(3S-OH,4S-OH)][Gln(3R-OH)][Pro(3S-OH)]; lactam 1-C)	32 mg/L

Could you now consider this next molecule?
For the molecule CCCCCOc1ccc(-c2cc(-c3ccc(C(=O)N[C@H]4C[C@@H](O)[C@@H](O)NC(=O)[C@@H]5[C@@H](O)[C@@H](C)CN5C(=O)[C@H]([C@@H](C)O)NC(=O)[C@H]([C@H](O)[C@@H](O)c5ccc(O)cc5)NC(=O)[C@@H]5C[C@@H](O)CN5C(=O)[C@H]([C@@H](C)O)NC4=O)cc3)no2)cc1 (X1-[Orn(4R-OH,5R-OH)]T[Hyp][hTyr(3S-OH,4S-OH)]T[Pro(3S-OH,4S-Me)]; lactam 1-C) , what MIC is on record? 2 mg/L
